# experimentalDetails: A CellTox Green Cytotoxicity Assay to monitor cytotoxicity in HEK293 cells - 0 hour (AID 1224869); further: on the % scale 0 is the no-effect control and ±100 the full control effect; nearly all actives have a fitted effect of over 50% in size
# appliedConditions: CellTox Green fluorescence; series mostly up to 76.8 µM
The source made the active and inactive calls. The call rests on the fitted dose curve; in most records, active means well fitted activation curve with a large enough effect in the repeat runs; inconclusive means weak or mixed curves; inactive means flat fitted curve, though single readings scatter.
observable: cytotoxicity

Sample records with cytotoxicity:
{"columns": ["compound", "cytotoxicity"],
 "data": [
  ["CCC[C@H](N[C@@H](C)C(=O)N1[C@H](C(=O)O)C[C@@H]2CCCC[C@@H]21)C(=O)OCC", "inactive"],
  ["CN(C)c1ccc2nc3ccc(=[N+](C)C)cc-3sc2c1", "inactive"],
  ["COc1ccc(Cc2cnc(N)nc2N)cc1OC", "inactive"],
  ["Nc1cc(S(=O)(=O)O)cc2cc(S(=O)(=O)O)cc(O)c12", "inactive"],
  ["CCCCCCC(O)CCCCCCCCCCC(=O)O (stereo unspecified)", "inactive"],
  ["NCCCCCC(=O)O", "inactive"]
]}

Exercise: Give the measured cytotoxicity for NC(N)=Nc1nc(CSCC/C(N)=N/S(N)(=O)=O)cs1
Solution: inactive

Exercise: Give the measured cytotoxicity for Cc1ccc(-c2cc(C(F)(F)F)nn2-c2ccc(S(N)(=O)=O)cc2)cc1
Solution: inactive

Exercise: Give the measured cytotoxicity for CCCCOCCOC(=O)c1ccccc1C(=O)OCCOCCCC
Solution: inactive

Exercise: Give the measured cytotoxicity for CCCCCCCCCCCC[N+](C)(C)C
Solution: inactive

Exercise: Give the measured cytotoxicity for N[C@@H]1CONC1=O
Solution: inactive

Exercise: Give the measured cytotoxicity for CCCCCCCCCCCCCCCCCl
Solution: 1.64% [at 15.8 µM] (inactive)

Exercise: Give the measured cytotoxicity for COc1ccc(COC(C)=O)cc1
Solution: inactive

Exercise: Give the measured cytotoxicity for C=C(C)C(=O)O
Solution: inactive

Exercise: Give the measured cytotoxicity for CCN(CC)c1ccc2c(C)cc(=O)oc2c1
Solution: inactive

Exercise: Give the measured cytotoxicity for Oc1c(Cl)cc(Cl)c(Cl)c1Cc1c(O)c(Cl)cc(Cl)c1Cl
Solution: inactive

Exercise: Give the measured cytotoxicity for Cc1cc(OCCOCC[N+](C)(C)Cc2ccccc2)ccc1C(C)(C)CC(C)(C)C
Solution: inactive

Exercise: Give the measured cytotoxicity for CC(C)CCCCCCc1ccc(O)cc1
Solution: inactive

Exercise: Give the measured cytotoxicity for O=C1CC2(CCCC2)CC(=O)N1CCCCN1CCN(c2ncccn2)CC1
Solution: inactive

Exercise: Give the measured cytotoxicity for CCc1ccc(C(c2ccc(CC)cc2)C(Cl)Cl)cc1
Solution: inactive

Exercise: Give the measured cytotoxicity for CC(C)(C)NCC(O)COc1ccccc1OCC1CCCO1 (stereo unspecified)
Solution: inactive

Exercise: Give the measured cytotoxicity for Cc1cc(Cc2cc(C)cc(C(C)(C)C)c2O)c(O)c(C(C)(C)C)c1
Solution: inactive

Exercise: Give the measured cytotoxicity for CCN1CCCC1CNC(=O)c1cc(S(=O)(=O)CC)c(N)cc1OC (stereo unspecified)
Solution: inactive

Exercise: Give the measured cytotoxicity for CCn1c2ccccc2c2cc(N)ccc21
Solution: inactive

Exercise: Give the measured cytotoxicity for CCCCC(CC)COC(=O)CC(C(=O)OCC(CC)CCCC)S(=O)(=O)O (stereo unspecified)
Solution: inactive

Exercise: Give the measured cytotoxicity for COC(c1ccccc1)(c1ccccc1)[C@H](Oc1nc(C)cc(C)n1)C(=O)O
Solution: inactive
